pIC50: −log10 of the molar value.
Record type: pIC50 measurement. Applies to: Acetylcholinesterase (Homo sapiens, UniProt P22303)
Metric name: pIC50

{"Smiles repr": "C/C=C1\\[C@H]2C=C(C)C[C@]1(/N=C/C=C/c1ccccc1)c1ccc(=O)[nH]c1C2", "Reported result": 7.62}
{"Smiles repr": "C/C=C1\\[C@H]2C=C(C)C[C@]1(/N=C/c1ccc(O)c(OCC)c1)c1ccc(=O)[nH]c1C2", "Reported result": 7.60}
{"Smiles repr": "C/C=C1\\[C@H]2C=C(C)C[C@]1(/N=C/c1ccccc1OS(=O)(=O)O)c1ccc(=O)[nH]c1C2", "Reported result": 7.39}
